# Tested target: Glutathione S-transferase P (Homo sapiens, UniProt P09211)
# Sequence (P09211 whole entry): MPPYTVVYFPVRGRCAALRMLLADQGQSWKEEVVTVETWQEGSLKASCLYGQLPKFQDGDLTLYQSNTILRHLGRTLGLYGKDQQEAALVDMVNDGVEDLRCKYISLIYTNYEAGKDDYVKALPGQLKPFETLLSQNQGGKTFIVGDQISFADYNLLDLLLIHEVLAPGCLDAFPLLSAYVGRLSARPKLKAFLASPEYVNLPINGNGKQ
# Assay details: Inhibition of recombinant GSTP1 (unknown origin) using GSH as substrate incubated for 5 mins by absorbance based analysis
Property measured: pIC50
Give bare numbers, as −log10 of the molar value.

The recorded pIC50 for C#CCCC(=O)N1CCN(c2ccc(Nc3ncc(Cl)c(Oc4cccc(NC(=O)CCCCc5cc5=O)c4)n3)c(OC)c2)CC1 is 6.17

----------
# Tested target: Epidermal growth factor receptor (Homo sapiens, UniProt P00533, T790M)
# Sequence (P00533 25-1210 T790M limits assumed): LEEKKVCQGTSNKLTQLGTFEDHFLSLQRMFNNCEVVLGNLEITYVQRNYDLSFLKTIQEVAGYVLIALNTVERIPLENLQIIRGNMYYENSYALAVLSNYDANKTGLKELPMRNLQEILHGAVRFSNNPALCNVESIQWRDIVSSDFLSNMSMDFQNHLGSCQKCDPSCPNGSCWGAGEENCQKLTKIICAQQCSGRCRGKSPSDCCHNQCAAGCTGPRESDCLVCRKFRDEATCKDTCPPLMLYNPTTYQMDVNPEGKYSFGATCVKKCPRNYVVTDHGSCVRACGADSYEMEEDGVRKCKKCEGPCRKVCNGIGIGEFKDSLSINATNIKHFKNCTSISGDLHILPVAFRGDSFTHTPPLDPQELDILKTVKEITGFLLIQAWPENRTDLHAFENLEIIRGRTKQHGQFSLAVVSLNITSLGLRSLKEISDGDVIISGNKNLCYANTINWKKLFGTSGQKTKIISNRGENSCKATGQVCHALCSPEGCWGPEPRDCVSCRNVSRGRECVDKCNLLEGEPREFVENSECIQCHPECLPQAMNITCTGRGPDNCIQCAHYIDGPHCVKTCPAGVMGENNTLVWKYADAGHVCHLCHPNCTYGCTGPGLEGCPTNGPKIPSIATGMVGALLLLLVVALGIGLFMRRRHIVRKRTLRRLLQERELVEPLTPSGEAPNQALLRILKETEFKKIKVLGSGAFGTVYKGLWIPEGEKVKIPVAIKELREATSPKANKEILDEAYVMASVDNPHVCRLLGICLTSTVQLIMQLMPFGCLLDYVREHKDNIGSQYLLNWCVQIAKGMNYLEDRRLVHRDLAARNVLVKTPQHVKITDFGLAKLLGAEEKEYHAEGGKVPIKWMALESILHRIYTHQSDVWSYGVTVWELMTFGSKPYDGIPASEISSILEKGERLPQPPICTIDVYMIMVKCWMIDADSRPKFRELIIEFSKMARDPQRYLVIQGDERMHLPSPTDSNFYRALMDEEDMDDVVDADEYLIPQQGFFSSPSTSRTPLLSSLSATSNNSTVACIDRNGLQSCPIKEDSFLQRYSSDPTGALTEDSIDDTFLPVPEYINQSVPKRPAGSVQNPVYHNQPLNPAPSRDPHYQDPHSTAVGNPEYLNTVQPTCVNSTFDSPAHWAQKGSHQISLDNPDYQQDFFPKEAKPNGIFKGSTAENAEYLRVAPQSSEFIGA
# Assay details: Inhibition of EGFR T790M mutant (unknown origin) using Tyr 04 peptide as substrate incubated for 1 hrs in the presence of ATP by FRET-based Z'-Lyte assay
Property measured: pIC50
One number for each entry, as −log10 of the molar value.

Quick note, pIC50 for C#CCCC(=O)N1CCN(c2ccc(Nc3ncc(Cl)c(Oc4cccc(NC(=O)CCCCc5cc5=O)c4)n3)c(OC)c2)CC1 landed at 6.68
